- tested.target: alpha1 -adrenoceptors
- assay.overview: [^3 H]-prazosin binding assay (affinity for alpha1-adrenoceptors)
- protocol.conditions: rat brain membranes, 0.2 nM [^3 H]-prazosin, 60 minutes at 25°
- Method: The [^3 H]-prazosin binding assay was carried out according to the method described by Timmermans, P. B. M. W. M., Schoop, A. M. C., and Van Zwieten, P. A.: Biochem Pharmacol., 31, 899-905, 1982 (1). The reaction mixture contained partially purified rat brain membranes (source of alpha1 -adrenoceptors), 0.2 nM [^3 H]-prazosin with or without potential displacer in Tris buffer. […] Receptor-bound [^3 H]-prazosin trapped in the filter was quantitated by scintillation counting. […]
Form field: pIC50 (one value per entry).
Convention used: pIC50 is expressed as -log10 of the molar concentration.

Below are worked cases with known answers.
COC(=O)C1=C(C)NC(C)=C([N+](=O)[O-])C1c1ccccc1OCCCCCCCCCCN1CCN(c2ccccc2OC)CC1 (stereo not shown)
5.96
COC(=O)C1=C(C)NC(C)=C([N+](=O)[O-])C1c1cc(OCCN2CCN(c3ccccc3OC)CC2)ccc1[N+](=O)[O-] (stereo not shown)
6.23
COC(=O)C1=C(C)NC(C)=C([N+](=O)[O-])C1c1ccccc1OCCCCN1CCN(c2ccccc2OC)CC1 (stereo not shown)
6.74

Next, consider the following compound.
Query string: # get_value(readout='pIC50', item= COC(=O)C1=C(C)NC(C)=C([N+](=O)[O-])C1c1cccc(OCCCN2CCN(c3ccccc3OC)CC2)c1 (stereo not shown) )
Result string: 7.15

Numbers sourced from patent US4868181A.
